Biological target: T1, CD3 (antigen of the anti-CD3 antibody, coated in the ELISA of Examples 1-3) (Homo sapiens (Human), UniProt P07766 23-126)
T1 construct: also called antibody antigen
T1 sequence (P07766 23-126 limits assumed, form in doubt): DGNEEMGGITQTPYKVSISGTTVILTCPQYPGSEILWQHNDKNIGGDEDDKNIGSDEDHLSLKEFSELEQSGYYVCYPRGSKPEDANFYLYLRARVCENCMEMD
Test: binding activity of the conjugated mutant compared with the wild-type antibody (ELISA as in Example 1)
Entries and their Blocking fold after conjugation (+20K) values follow.
Kindly report the value followed by its unit.

Given item anti-CD3 antibody mutant VH-F104C conjugated with Molecule I (+20K) (antibody, V domains shown, Cys 104 conjugated with Molecule I (+20K), also called VH-104 F104 (+20K)) VH: EVQLVESGGGLVQPGGSLRLSCAASGFTFSTYAMNWVRQAPGKGLEWVGRIRSKYNNYATYYADSVKDRFTISRDDSKNSLYLQMNSLKTEDTAVYYCARHGNCGNSYVSWFAYWGQGTLVTVSS VL: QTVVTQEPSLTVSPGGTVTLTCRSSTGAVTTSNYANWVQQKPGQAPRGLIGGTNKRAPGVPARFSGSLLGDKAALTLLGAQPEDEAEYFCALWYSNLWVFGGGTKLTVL , the value recorded as its Blocking fold after conjugation (+20K) is 13 fold

Shift focus to the following entry.
Given item anti-CD3 antibody mutant VL-Y94C conjugated with Molecule I (+20K) (antibody, V domains shown, Cys 94 conjugated with Molecule I (+20K), also called VL-94 Y94 (+20K)) VH: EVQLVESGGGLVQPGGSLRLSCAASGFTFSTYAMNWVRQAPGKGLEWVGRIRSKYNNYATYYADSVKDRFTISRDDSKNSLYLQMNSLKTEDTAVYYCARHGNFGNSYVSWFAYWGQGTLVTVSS VL: QTVVTQEPSLTVSPGGTVTLTCRSSTGAVTTSNYANWVQQKPGQAPRGLIGGTNKRAPGVPARFSGSLLGDKAALTLLGAQPEDEAEYFCALWCSNLWVFGGGTKLTVL , the value recorded as its Blocking fold after conjugation (+20K) is 30 fold
